Reference source for all entries: patent US20260356851A1

System under test: pERK1/2 (Thr202/Tyr204), NCI-1H441 (KRAS G12V) (Homo sapiens, UniProt P01116, G12V)
Construct: pERK1/2 HTRF read-out
Sequence (P01116 1-188 isoform P01116-2 G12V): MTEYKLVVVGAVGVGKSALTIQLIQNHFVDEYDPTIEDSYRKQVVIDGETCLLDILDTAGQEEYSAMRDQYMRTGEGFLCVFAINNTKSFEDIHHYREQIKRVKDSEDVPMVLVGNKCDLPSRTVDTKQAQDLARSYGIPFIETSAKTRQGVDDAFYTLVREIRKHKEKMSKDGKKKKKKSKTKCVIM
Run description: Assay of intracellular pERK1/2 (Thr202/Tyr204) phosphorylation in NCI-H441 cells (KRAS G12V)
Assay type: cell-based
Condition: pERK1/2, 2 days, read-out: NCI-H441 (KRAS G12V) IC50
Parameter: IC50. Scope: all listed entries.

{"Compound": "Cc1ccc2[nH]ncc2c1-c1nc2c3c(nc(OC[C@@]45CCCN4C[C@H](F)C5)nc3c1F)N(C(C)c1cccnc1N)[C@@H](C)CO2 (some centres unmarked)", "IC50": "7 nM"}
{"Compound": "Cc1cc2[nH]ncc2c(-c2nc3c4c(nc(O)nc4c2F)N(C(C)c2cccnc2N)CCO3)c1C (centres unmarked)", "IC50": "> 1000 nM"}
{"Compound": "CC(c1cccnc1N)N1CCOc2nc(-c3cc(N)cc(Cl)c3C3CC3)c(F)c3nc(OC[C@@H]4CCCN4C)nc1c23 (some centres unmarked)", "IC50": "8 nM"}
{"Compound": "CC(c1cccnc1N)N1CCOc2nc(-c3cc(N)c(F)c(Cl)c3C3CC3)c(F)c3nc(OC[C@@]45CCCN4C[C@H](F)C5)nc1c23 (some centres unmarked)", "IC50": "0.9 nM"}
{"Compound": "CC(c1cccnc1N)N1CCOc2nc(-c3cc(N)c(F)cc3C(F)(F)F)c(F)c3nc(OC[C@@]45CCCN4C[C@H](F)C5)nc1c23 (single isomer, unassigned) [Compound 144]", "IC50": "2 nM"}
{"Compound": "CC(c1cccnc1N)N1c2nc(OC[C@@]34CCCN3C[C@H](F)C4)nc3c(F)c(-c4cc(N)cc(Cl)c4C(F)(F)F)nc(c23)OC[C@@H]1C (single isomer, unassigned) [Compound 271]", "IC50": "> 100 nM"}
{"Compound": "[2H]C1([2H])CC[C@@]2(C([2H])([2H])Oc3nc4c5c(nc(-c6cc(N)c(F)c(C)c6C(F)(F)F)c(F)c5n3)OCCN4C(C)c3cccnc3N)C[C@]([2H])(F)CN12 (single isomer, unassigned; diastereomer 2)", "IC50": "3 nM"}
{"Compound": "Cc1c(F)c(N)cc(-c2nc3c4c(nc(OC[C@@]56CCCN5C[C@H](F)C6)nc4c2F)N(C(C)c2cccnc2N)C[C@H](C)O3)c1C(F)(F)F (single isomer, unassigned) [Compound 253]", "IC50": "> 100 nM"}
{"Compound": "[2H]C([2H])(Oc1nc2c3c(nc(-c4cc(O)cc(Cl)c4C4CC4)c(F)c3n1)OCCN2[C@H](C)c1cccnc1N)[C@@H]1C[C@@H](F)CN1C([2H])([2H])[2H] (single isomer, unassigned)", "IC50": "> 100 nM"}
{"Compound": "Cc1cc(N)cc(-c2nc3c4c(nc(OC[C@]56CCCN5[C@@H](CO)CC6)nc4c2F)N(C(C)c2cccnc2N)CCO3)c1C(F)(F)F (single isomer, unassigned)", "IC50": "> 100 nM"}
{"Compound": "CC(=O)Nc1ncccc1C(C)N1CCOc2nc(-c3cc(N)c(F)c(C)c3C(F)(F)F)c(F)c3nc(OC[C@@]45CCCN4C[C@H](F)C5)nc1c23 (some centres unmarked)", "IC50": "> 100 nM"}
